# SYSTEM UNDER TEST: cardiac troponin C (cTnC), regulatory N-domain (cNTnC) (Homo sapiens, UniProt P19429+P63316)
# Sequence (P63316 1-89): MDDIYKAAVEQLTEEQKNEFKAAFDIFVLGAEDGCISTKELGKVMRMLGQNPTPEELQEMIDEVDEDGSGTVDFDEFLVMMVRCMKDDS
# Sequence (P19429 145-164): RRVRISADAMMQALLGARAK
# TEST NAME: 1H, […]-HSQC NMR titration
RECORDED ENDPOINT: pKd
One number for each entry, as −log10 of the molar value.

Problem: Report measured pKd; entry is `O=C(O)Cc1ccc(-c2ccc(F)cc2F)cc1`
Result: 2.55
